# TEST_NAME: Toxicity in rat
# Format: organism-based
# CONDITIONS: in vivo, read-out: ALD50
# maps each entry to its LD50
Supply the numeric figure in mg/kg, leaving out any unit text.

In the examples that follow, each entry is paired with its recorded LD50.
O=C1N=C([O-])NC1(c1ccccc1)c1ccccc1.[Na+] [PHENYTOIN SODIUM] : 1000
O=C1NC(=S)NC(=O)C1CNc1nnc(CN2c3ccccc3Sc3ccccc32)s1 : 1000

Read the entry O=C1NC(=O)C(CNc2nnc(CN3c4ccccc4Sc4ccccc43)o2)C(=O)N1 and write its reported LD50.
1000

Origin of measurements: ChEMBL document CHEMBL1938350
